# Tested On: WDR5 (Homo sapiens, UniProt P61964)
# Measurement Description: DSF (Tm shift -4.[…] °C) plus WDR5-MYC peptide HTRF displacement with counter assay
# Assay type: binding
# Design: full-length WDR5 (DSF); N-His, 1–334 (HTRF)
Measurement Label: pIC50
Note on pIC50: it is the negative log10 of concentration, concentration in mol/L.

Sample O=C(c1cc2ccccc2[nH]1)N1CCn2ncc(N3C[C@@H](CO)OC3=O)c2C1 ; pIC50 observed: 4.45

###

# Tested On: WDR5 (Homo sapiens, UniProt P61964)
# Measurement Description: DSF (Tm shift -1.[…] °C) plus WDR5-MYC peptide HTRF displacement with counter assay
# Assay type: binding
# Design: full-length WDR5 (DSF); N-His, 1–334 (HTRF)
Measurement Label: IC50 (µM)
// note: answer is a bare numeric in µM

Per the records, this molecule ( C[C@H]1Cc2noc(N3CCCCC3=O)c2CN1C(=O)c1cc2ccccc2[nH]1 ) has IC50 equal to 27.5
